Known Emax of a selection of compounds
molecular target: APOL1 G1 (Homo sapiens, UniProt O14791, I384M/S342G); experiment: Trypanosoma brucei brucei Lysis Assay Using APOL1 Recombinant Protein (AlamarBlue viability readout); assay type: cell-based; details: Trypanosome Assay; read-out: Trypanosome Assay Max Activity (%)
Sequence (O14791 28-398 S342G/I384M): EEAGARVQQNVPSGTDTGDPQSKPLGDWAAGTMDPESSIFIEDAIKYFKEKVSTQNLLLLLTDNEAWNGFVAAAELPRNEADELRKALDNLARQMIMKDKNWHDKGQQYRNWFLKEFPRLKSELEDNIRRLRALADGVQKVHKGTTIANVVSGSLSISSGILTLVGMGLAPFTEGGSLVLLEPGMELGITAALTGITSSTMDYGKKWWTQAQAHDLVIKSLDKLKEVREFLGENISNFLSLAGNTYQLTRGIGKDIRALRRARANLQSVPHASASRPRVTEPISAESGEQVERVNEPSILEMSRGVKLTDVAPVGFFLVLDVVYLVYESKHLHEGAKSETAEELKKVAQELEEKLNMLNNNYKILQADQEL
# value in %; strip the unit string

| compound | subject.of.test | Emax, % |
| --- | --- | --- |
| Cc1ccc([C@@H]2C[C@]3(C[C@H](C)N2)OCCc2cc(Cl)sc23)nc1 (racemic) | APOL1 G1 (Homo sapiens, UniProt O14791, I384M/S342G) | 110 |
| C[C@H]1C[C@@]2(C[C@@H](c3ccnnc3)N1)OCCc1cc(Cl)sc12 (racemic) | APOL1 G1 (Homo sapiens, UniProt O14791, I384M/S342G) | 112 |
| Cc1cc([C@@H]2C[C@]3(C[C@H](C)N2)OCCc2cc(Cl)sc23)nn1C (racemic) | APOL1 G1 (Homo sapiens, UniProt O14791, I384M/S342G) | 110 |

Given the entry CC1CC2(CC(c3cnn(CCS(C)(=O)=O)c3)N1)OCCc1cc(Cl)sc12 (centres unmarked) , what Emax was observed with APOL1 G1 (Homo sapiens, UniProt O14791, I384M/S342G)? 108

Item CC1CC2(CC(c3ccc4c(c3)oc(=O)n4C)N1)OCCc1cc(Cl)sc12 (centres unmarked) with APOL1 G1 (Homo sapiens, UniProt O14791, I384M/S342G) - Emax? 116

Write down the reported Emax of COc1nn(C)cc1[C@@H]1C[C@]2(C[C@H](C)N1)OCCc1cc(Cl)sc12 (racemic) , test system: APOL1 G1 (Homo sapiens, UniProt O14791, I384M/S342G). 96.5

Identify the measured Emax of C[C@H]1C[C@@]2(C[C@@H](c3cc(-c4ccccn4)n[nH]3)N1)OCCc1cc(Cl)sc12 (racemic) for APOL1 G1 (Homo sapiens, UniProt O14791, I384M/S342G). 98

Provide value of Emax for this record tested with APOL1 G1 (Homo sapiens, UniProt O14791, I384M/S342G): COc1ccccc1-c1ncc([C@@H]2C[C@]3(C[C@H](C)N2)OCCc2cc(Cl)sc23)cn1 (racemic) 72

====

The following molecules are listed with their measured IC50 values.
molecular target: APOL1 (Homo sapiens, UniProt O14791); assay: Multi-Tox Assay (MultiTox-Fluor Multiplex Cytotoxicity Assay in tet-inducible APOL1 T-REx-HEK293 cells; Table 46 does not say which APOL1 variant G0/G1/G2); conditions: IP50 = IC50 for cell proliferation, APOL1 variant not given
Sequence (O14791 whole entry S342G/I384M, form open): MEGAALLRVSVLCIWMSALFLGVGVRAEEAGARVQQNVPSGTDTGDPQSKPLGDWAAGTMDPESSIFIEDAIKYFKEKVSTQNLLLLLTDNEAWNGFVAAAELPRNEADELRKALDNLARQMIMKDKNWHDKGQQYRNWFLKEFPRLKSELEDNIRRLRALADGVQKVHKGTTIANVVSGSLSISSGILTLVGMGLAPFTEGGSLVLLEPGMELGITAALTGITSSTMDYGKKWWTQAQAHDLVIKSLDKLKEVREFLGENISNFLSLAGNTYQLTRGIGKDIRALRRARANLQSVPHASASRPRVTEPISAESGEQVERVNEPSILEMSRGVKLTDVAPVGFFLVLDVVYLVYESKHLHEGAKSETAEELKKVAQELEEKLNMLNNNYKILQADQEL

Query: IC50; subject: C[C@H]1C[C@@]2(C[C@@H](c3cn(CCC(N)=O)nn3)N1)OC[C@@H](O)c1cc(Cl)sc12 50 to 500 nM

Sample CCc1cc2c(s1)C(C)COC21C[C@@H](c2cn(C)nn2)N[C@@H](C)C1 (stereo in doubt) [Compound 11] — what was its IC50? < 50 nM

# query: IC50 of entry C[C@H]1C[C@@]2(C[C@@H](c3cn(CC4CCOC4)nn3)N1)OC[C@@H](O)c1cc(Cl)sc12 (some centres unmarked) 50 to 500 nM

# IC50 lookup, item C[C@H]1C[C@@]2(C[C@@H](c3cn(Cc4cccc(CO)c4)nn3)N1)OC[C@@H](O)c1cc(Cl)sc12 < 50 nM

Which IC50 reading was recorded for the molecule C[C@H]1C[C@@]2(C[C@@H](c3ccon3)N1)OCCc1cc(Cl)sc12 (racemic) ? < 50 nM

Query (molecule): CCC(O)Cn1cc([C@@H]2C[C@]3(C[C@H](C)N2)OCCc2cc(Cl)sc23)nn1 (mixture of isomers) ; field requested: IC50 < 50 nM

What does the data say about its IC50? Entry: C[C@H]1C[C@@]2(C[C@@H](c3cn(CC4(CO)CC4)nn3)N1)OC[C@@H](O)c1cc(Cl)sc12 50 to 500 nM

For C[C@H]1C[C@@]2(C[C@@H](c3ccc(N(C)C)nc3)N1)OCCc1cc(Cl)sc12 (racemic) , what is its reported IC50? < 50 nM
